Entries and their nuclei count
ASSAY REMARKS: endothelial E-selectin expression blockers – imaging, HUVEC, immunofluorescence, MLSMR starter and 10KST1 sets, primary screen (AID 487);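 further: 100% = median nuclei count of all wells on the same plate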
CONDITIONS: HUVEC TNFalpha-induced E-selectin immunofluorescence imaging, at 2 µM; measured here: cell number, toxicity
OUTCOME MEASURE: nuclei count (%)

* COc1ccc(NC(=O)CSc2nnc(-c3ccccc3)n2N)cc1 | 114
* CCOC(=O)C1(C)NC(c2ccc(OC)c(OC)c2)C2C(=O)N(CC)C(=O)C21 (stereo not given) | 182
* CCCCCOC(=O)C1=C(C)N(C)C(=O)NC1c1cc(Br)c(O)c(OC)c1 (stereo not given) | 105
* COC(=O)CNC(=O)COC(=O)c1cc(Cl)cc(Cl)c1N | 123
* Cc1ccc(NC(=O)C2CCCN(S(=O)(=O)c3cnc[nH]3)C2)cc1F (stereo not given) | 126
* C#CCN1C(=O)C(O)(CC(=O)c2cc(OC)ccc2OC)c2ccccc21 (stereo not given) | 124
* CC(=O)Nc1ccc(NC(=O)Cn2cc3c(n2)CCC(C)C3)cc1 (stereo not given) | 103
* COc1cccc(NC(=O)c2ccco2)c1 | 96.1
* CCOc1ccc(NC(=O)CSc2nnc(Cc3cccn3C)n2-c2ccc(OC)cc2)cc1 | 117
* COC(=O)c1cccc(S(=O)(=O)N2CCC(C)CC2)c1 | 93

====

TGT: Alpha-2C adrenergic receptor (Homo sapiens)
ASSAY REMARKS: compounds altering alpha2C-coupled GIRK flux – cell-based, HEK293 alpha2C/GIRK1/2, thallium flux, primary screen (AID 624);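 further: slope of fluorescence ratio to pre-addition baseline per second over 15 to 24 s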
CONDITIONS: thallium flux BTC fluorescence, at 10 µM, actives lie on both sides
Entries and their slope
OUTCOME MEASURE: slope

- Cc1nc2ccc(S(=O)(=O)NC(C(=O)Nc3nccs3)C(C)C)cc2s1 (stereo not drawn): 0.00646
- O=C(CSc1nnc(CNC(=O)c2cccs2)o1)NC1CCCC1: 0.00569
- CCOC(=O)c1cc2c(=O)n3ccccc3nc2n(CCCOC)c1=NC(C)=O: 0.00482

====

ASSAY REMARKS: TLR3 IRF3 reporter activation blockers – cell-based, poly I:C stimulus, luciferase, 10K MLSCN set, primary screen (AID 602277)
CONDITIONS: HEK293-TLR3 RL24 IRF3 luciferase reporter, at 10 µM, stronger effect = higher value
OUTCOME MEASURE: inhibition (%)

- C/C=C/c1ccc(OCCn2cncn2)c(OC)c1: 2
- CCCC(=O)Nc1nnc(Sc2ccc(N(C)C)cc2)s1: -10.3
- CC(CCc1ccccc1)NCc1ccncc1 (stereo not drawn): 23.5

====

Entries and their inhibition
ASSAY REMARKS: inhibitors of TNFa-induced NFkB p65 translocation, primary screen, imaging, HUVEC, MLSMR starter and 10KST1 sets (AID 438);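 further: compound added about 3h40 before a 20 min TNFalpha stimulation; signal is the nuclear over cytoplasmic p65 intensity ratio per well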
CONDITIONS: HUVEC TNFa-induced p65 nuclear translocation; at 2 µM, stronger effect = higher value, 0% TNFa-plus-vehicle, 100% no-TNFa wells
OUTCOME MEASURE: inhibition (%)

* C=C(C)Cn1c(-c2ccccc2)nc2ccccc21 | -5.5
* O=C(CCCCCN1C(=O)CCC1=O)NCc1ccccc1 | -15.5
* O=C(COC(=O)c1cccc(S(=O)(=O)N2CCc3ccccc32)c1)NC1CCS(=O)(=O)C1 (centres undefined) | 8.9
* O=C(NC12CC3CC(CC(C3)C1)C2)N1CCN(C(=O)C2CCCO2)CC1 (centres undefined) | -10.3
* COc1ccc(CCNC(=O)CSc2nncn2N)cc1OC | -3.2
* CCOC(=O)N1CCC2(O)CCCCC2C1c1ccc(F)cc1 (centres undefined) | -1.7
* CCOC(=O)Cc1ccc(NS(=O)(=O)c2ccc(SC)cc2)cc1 | -7.2
* O=C(Nc1ccccc1)c1cnc2n(c1=O)CCS2 | -18.7
* CCN1CCN(c2ncc(C(=O)N3CCN(c4ccccc4OC)CC3)c3ccccc23)CC1 | -2.5

====

TGT: Voltage-gated potassium channel subunit beta-2 (Rattus norvegicus)
ASSAY REMARKS: enhancers of rat Kvbeta2 NADPH turnover – biochemical, NADPH fluorescence, primary screen (AID 623);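 further: fluorescence intensity change per second fitted from 20 to 320 s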
CONDITIONS: Recombinant KvBeta, NADPH fluorescence decrease slope, 10 min; at 10 µM; stronger effect = lower value
Entries and their NADPH fluorescence slope
OUTCOME MEASURE: NADPH fluorescence slope

* O=c1c2cc(Cl)ccc2[nH]c(=S)n1Cc1ccco1 | -4.8e-05
* Cc1cccc(-n2ncc3c(NCCCn4ccnc4)ncnc32)c1 | -4.7e-05
* O=C(C1CCCN(S(=O)(=O)c2cccc3nonc23)C1)N1CCC(Cc2ccccc2)CC1 (stereo unspecified) | -1e-05
* CCc1ccccc1OCCCCN1CCCC1 | -4.4e-05
* COc1ccc(C)cc1NS(=O)(=O)c1ccc(NS(=O)(=O)c2ccc(NC(C)=O)cc2)cc1 | -6e-05
* N#Cc1cc2c(nc1SCC(=O)Nc1sc3c(c1C#N)CCC3)CCCCC2 | -4.1e-05

====

ASSAY REMARKS: blockers of RIG-like receptor reporter activation – cell-based, Sendai virus stimulus, luciferase, 10K MLSCN set, TLR/RLR signaling modifier project, primary screen (AID 602276);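 further: firefly luciferase from ISG56 promoter only with Renilla not read in this screen; 0% = Sendai virus plus DMSO and 100% = medium plus DMSO without virus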
CONDITIONS: HEK293 RL24 IRF3 luciferase reporter, at 10 µM, stronger effect = higher value
Entries and their inhibition
OUTCOME MEASURE: inhibition (%)

- N#CCCn1ccc(NC(=O)c2ccc(Cl)cc2)n1: -18.1
- CC(=O)c1n[nH]nc1NC(=O)c1ccccc1: 4.32
- COc1cc(C2c3c(n[nH]c3C)C(=O)N2c2ccc(Br)cc2)ccc1O (stereo not drawn): 8.55
- Cc1ccc(N(CC(=O)NCC2CCCO2)S(C)(=O)=O)cc1Cl (stereo not drawn): 23.8
- CC(C)(C)NC(=O)NC(=O)COc1ccccc1C#N: 2.8
- O=C(O)C1CC(=O)N(CCOc2ccccc2)C1 (stereo not drawn): 0.323
- O=S(=O)(NC1CCCC1)c1ccc(S(=O)(=O)N2CCc3ccccc32)cc1: 5.42
- CCc1nc(C)ccc1OCC(=O)O: -11.9
- CCc1ccccc1-n1c(SCC(=O)N2CCCC2)nnc1-c1ccccn1: -2.19
- COc1ccc(OC)c(C2C(C(=O)Nc3cccnc3)=C(C)NC3=C2C(=O)CCC3)c1 (stereo not drawn): 3.04
- CCC1(c2ccc(F)cc2)NC(=O)N(CC(=O)c2ccc[nH]2)C1=O (stereo not drawn): 4.26
- Cc1ccccc1Cn1nc(C)c(NC(=O)c2noc3c2CCc2ccccc2-3)c1C: 8.23
- O=C(CN(CCc1ccccc1)C(=O)CN1C(=O)COc2ccccc21)NCc1ccco1: 16.4
- CC1CN(c2nc3ccccc3nc2C(C#N)C(=O)NCc2ccc3c(c2)OCO3)CC(C)O1 (stereo not drawn): 18.7
- CCc1nn(CC(=O)N2CCN(Cc3ccc4c(c3)OCO4)CC2)c(=O)c2cc3occc3n12: -5.95
- C=CCn1c(SCC(=O)C(C)(C)C)nnc1-c1ccccn1: 12.5
- Fc1ccc(-c2ccc(-c3nn4c(-c5ccco5)nnc4s3)o2)cc1: -5.55
- O=C(Cc1ccccc1)N1CCCC(c2nc(-c3cccs3)no2)C1 (stereo not drawn): -9.21
- O=C(NCCN1C(=O)C2C3C=CC(C3)C2C1=O)N1CCOCC1 (stereo not drawn): 3.84
- O=C(CN1CCCCCC1)OCCN=C1NS(=O)(=O)c2ccccc21: 9.82
- CCOc1cc(C(=O)Nc2ccon2)cc(OCC)c1OCC: 17.9
- Cc1cc(OCC(=O)N2CCCC2)cc(C)c1Cl: 4.42
- CNC(=O)CSc1nnc(-c2cc3c(C)nn(-c4ccccc4)c3s2)n1C: -6.24
- Cn1c(COc2ccc(Cl)cc2)nnc1SCC(=O)NC1CCCCC1: -9.58
- CCc1ccccc1N1CC23C=CC(O2)C(C(=O)O)C3C1=O (stereo not drawn): 12.3
- COc1ccc2c(c1OC)C(=O)OC2CC(=O)c1ccc(O)cc1 (stereo not drawn): 4.78
- Cc1ccc(-c2cc(C(=O)Nc3cc(C)on3)c3ccccc3n2)c(C)c1: 10.5
- O=C(c1ccccc1-c1nc(-c2ccccc2)no1)N1CCCC1: -20.5
- CC(O)c1c(OCc2ccccc2)ncnc1OCc1ccccc1 (stereo not drawn): 10.6
- COc1cccc(C2CC(c3c(Cl)cccc3Cl)n3nc(N)nc3N2)c1 (stereo not drawn): 22.2
- Cc1ccc(S(=O)(=O)C(C#N)c2nc3ccccc3nc2N2CCCCC2)cc1 (stereo not drawn): 11.2
- COC(=O)c1cccc(NC(=O)Cc2coc3cc(OC)ccc23)c1: 4.7
- Cc1cc(NC(=O)c2ccc3c(c2)C(=O)N(Cc2cccnc2)C3=O)no1: -5.06
- NC(=O)c1c(NC(=O)CN2CCCC2)sc2c1CCCC2: -25.4
- CC1=C(C(=O)N2CCCCC2)C2(CCC(C)CC2)OC1=O (stereo not drawn): 15.2
- CCCCCC1CC(CC(C)C(=O)Nc2nncs2)C(=O)O1 (stereo not drawn): 11.3
- CN(CCCNC(=O)c1cn(C)c2ccc(S(=O)(=O)N(C)C)cc2c1=O)c1ccccc1: 15.4
- CCOC(=O)Cc1cc(=O)n2[nH]c(C)c(-c3ccc(OC)cc3)c2n1: 14.2
